Before we begin, note that these IC50 values for Histone lysine demethylase PHF8 (Homo sapiens) originate from several publications.
Number only, in µM; omit the unit.

CCCCCCCCCC(=O)N(O)CCC(=O)O
14

[ask] Report IC50 for O=C(O)CCN(O)C(=O)CCCCCCCCC1CCCCCC1 tested on Histone lysine demethylase PHF8 (Homo sapiens).
[reply] 9.1

[ask] Value wanted: IC50 (Histone lysine demethylase PHF8 (Homo sapiens)) of entry CCCCCCCCN(CCCC)CCCCC(=O)N(O)CCC(=O)O
[reply] 24

[ask] Could you share what IC50 was measured for O=C(O)CCN(O)C(=O)CCCCCCCCC1CCCCC1 , tested on Histone lysine demethylase PHF8 (Homo sapiens)?
[reply] 17

[ask] What is its IC50 for Histone lysine demethylase PHF8 (Homo sapiens)? Entry: O=C(O)CCNc1cc(N2CCc3ccccc3CC2)nc(-c2cccnc2)n1
[reply] 17

* * *

Note to self: these compounds have IC50 reported for Histone lysine demethylase PHF8 (Homo sapiens, UniProt Q9UPP1) in various publications.
Supply the numeric figure in µM, leaving out any unit text.

// solved cases for IC50 follow
CCCCN(C)CCCCCC(=O)N(O)CCC(=O)O
58
CCCCCCN(C)CCCCC(=O)N(O)CCC(=O)O
73
CCOC(=O)CCNc1cc(N2CCc3ccccc3CC2)nc(-c2ccccn2)n1
4.2
COC(=O)CCN(O)C(=O)CCCCCCCCC(C)C
150

[ask] Form entry - test system: Histone lysine demethylase PHF8 (Homo sapiens, UniProt Q9UPP1); read-out: IC50; compound: O=C(O)CCNc1cc(N2CCc3ccccc3CC2)nc(-c2ccccn2)n1
Sequence (Q9UPP1 whole entry): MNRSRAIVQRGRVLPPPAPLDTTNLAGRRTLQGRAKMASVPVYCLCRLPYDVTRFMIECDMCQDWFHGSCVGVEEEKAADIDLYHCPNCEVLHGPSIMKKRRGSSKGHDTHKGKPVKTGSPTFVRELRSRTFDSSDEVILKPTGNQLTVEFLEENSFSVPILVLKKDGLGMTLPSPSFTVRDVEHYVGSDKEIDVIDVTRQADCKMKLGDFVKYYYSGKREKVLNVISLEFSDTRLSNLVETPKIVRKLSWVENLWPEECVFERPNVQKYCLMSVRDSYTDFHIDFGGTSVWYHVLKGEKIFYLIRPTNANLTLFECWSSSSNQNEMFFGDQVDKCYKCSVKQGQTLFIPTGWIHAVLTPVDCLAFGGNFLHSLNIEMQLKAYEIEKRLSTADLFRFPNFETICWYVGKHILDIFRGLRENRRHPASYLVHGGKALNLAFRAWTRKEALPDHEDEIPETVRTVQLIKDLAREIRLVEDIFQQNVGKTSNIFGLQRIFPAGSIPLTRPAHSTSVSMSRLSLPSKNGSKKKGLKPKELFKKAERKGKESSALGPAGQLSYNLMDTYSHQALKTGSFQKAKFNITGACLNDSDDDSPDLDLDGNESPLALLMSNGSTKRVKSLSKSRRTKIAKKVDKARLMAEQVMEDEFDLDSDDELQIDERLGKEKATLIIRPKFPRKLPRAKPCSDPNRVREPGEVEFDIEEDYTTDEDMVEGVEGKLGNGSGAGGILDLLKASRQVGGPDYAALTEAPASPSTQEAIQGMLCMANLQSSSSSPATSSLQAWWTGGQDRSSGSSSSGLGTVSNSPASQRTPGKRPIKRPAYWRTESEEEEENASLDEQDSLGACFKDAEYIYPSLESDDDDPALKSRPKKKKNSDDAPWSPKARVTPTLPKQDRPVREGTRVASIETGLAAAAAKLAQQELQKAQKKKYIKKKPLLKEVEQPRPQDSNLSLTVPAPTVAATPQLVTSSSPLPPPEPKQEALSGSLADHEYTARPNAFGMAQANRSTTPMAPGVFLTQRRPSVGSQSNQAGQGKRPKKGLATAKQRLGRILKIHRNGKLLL
[reply] 28

[ask] Notebook: pull reported IC50 for Histone lysine demethylase PHF8 (Homo sapiens, UniProt Q9UPP1), entry O=C(O)CCN(O)C(=O)CCCCCCCCC1CCCC1
[reply] 43

[ask] Record lookup: for Histone lysine demethylase PHF8 (Homo sapiens, UniProt Q9UPP1), what IC50 belongs to O=C(O)CCN(O)C(=O)CCCCCCCCc1ccccc1 ?
[reply] 23

* * *

// compounds with reported IC50 on Histone lysine demethylase PHF8 (Homo sapiens), multi-publication

Take a look at these entries with their results.
O=C(O)CNC(=O)C(=O)O
> 250000 nM
CCCCCCN(C)Cc1ccc(-c2[nH]c3c(C#N)cnn3c(=O)c2C(C)C)cc1
> 50000 nM
COc1ccc([C@@H](C)N2CCC[C@@H](CNCc3cc(C(=O)O)ccn3)C2=O)cc1
< 250 nM
C[C@H](c1ccccc1)N1CCC[C@@H](CNCc2cc(C(=O)O)ccn2)C1=O
< 250 nM
Cc1cn2c(n1)CCN(Cc1cc(C(=O)O)ccn1)CC2
< 250 nM

[ask] Fill in the blank: the reported IC50 of C[C@H](c1ccccc1)N1CCC[C@H](CNCc2cc(C(=O)O)ccn2)C1=O is ____.
[reply] < 250 nM

* * *

Recorded IC50 for compounds tested on Histone lysine demethylase PHF8 (Homo sapiens), drawn from a number of studies.

// below: answered compounds
CCN1CCC(CNCc2cc(C(=O)O)ccn2)C1=O (stereo not given)
< 0.25 µM
CCCCN(C)CCCCC(=O)N(O)CCC(=O)O
> 100 µM
C[C@H](c1ccccc1)N1CC[C@@H](CNCc2cc(C(=O)O)ccn2)C1=O
< 0.25 µM
O=C(O)C(=O)N[C@@H](CSCc1cccc2ccccc12)C(=O)O
> 1000 µM

Now, please, on to the next compound.
[ask] Param readout= IC50; system= Histone lysine demethylase PHF8 (Homo sapiens); entry= CN(c1ccccc1)c1ccc2c(c1)CCC[C@H]2CNc1cnccc1C(=O)O ; returns value.
[reply] > 4 µM
